The reported numbers originate from patent US9663429B2.

Reported Binding to VDR % relative to 1,25D (100%) by item:
# measured-target: vitamin D receptor (VDR) (Homo sapiens, UniProt P11473)
# Construct: purchased Invitrogen
# Sequence (P11473 whole entry): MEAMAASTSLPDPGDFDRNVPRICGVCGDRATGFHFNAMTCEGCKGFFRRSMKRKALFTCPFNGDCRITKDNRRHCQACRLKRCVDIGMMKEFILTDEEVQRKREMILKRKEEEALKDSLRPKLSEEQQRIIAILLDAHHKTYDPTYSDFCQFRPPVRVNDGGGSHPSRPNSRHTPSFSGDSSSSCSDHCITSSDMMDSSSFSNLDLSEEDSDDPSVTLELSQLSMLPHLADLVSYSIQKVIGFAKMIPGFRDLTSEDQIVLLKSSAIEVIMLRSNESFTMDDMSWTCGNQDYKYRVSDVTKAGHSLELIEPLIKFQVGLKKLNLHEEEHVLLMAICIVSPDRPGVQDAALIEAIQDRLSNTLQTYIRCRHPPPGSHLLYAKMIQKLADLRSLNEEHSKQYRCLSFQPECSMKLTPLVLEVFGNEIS
# experiment-description: Competitive binding to vitamin D receptor (Polarscreen VDR competitor assay, fluorescence polarisation)
# condition-label: activity relative to natural hormone 1,25D normalised at 100%
Give just the numeric value; % need not be written.

> print(dat)
                                   molecule  unit  reported.value
1  C=C1/C(=C\C=C(/CCCCCC)c2cccc(CCCCCC(C)(C)O)c2)C[C@@H](O)C[C@@H]1O     %               9
2  C=C1/C(=C\C=C(/CCCC)c2cccc(CCCCCC(C)(C)O)c2)C[C@@H](O)C[C@@H]1O     %              12
3  C=C1/C(=C\C=C(/CCC)c2cccc(CCCCCC(C)(C)O)c2)C[C@@H](O)C[C@@H]1O     %              10
4  C=C1/C(=C\C=C(/CC)c2cccc(CCCCCC(C)(C)O)c2)C[C@@H](O)C[C@@H]1O [PG-136p]     %              24

Q. Using the record for C=C1/C(=C\C=C(/CCCCCCC)c2cccc(CCCCCC(C)(C)O)c2)C[C@@H](O)C[C@@H]1O , report its Binding to VDR % relative to 1,25D (100%).
A. 7

====

# experiment-description: Calcaemic effects in mice at 0.3 μg/kg
# Type: in vivo
# condition-label: ip every two days for 21 days, 0.3 μg/kg (table title prints 0.3 mg/kg)
parameter-measured: Calcaemic activity: blood calcium in percentage over that induced by 1,25D (%)
Give just the numeric value; % need not be written.

The cases that follow already have their Calcaemic activity: blood calcium in percentage over that induced by 1,25D on record.
compound	unit	reported-value
C=C1/C(=C\C=C(/CCCCCC(C)(C)O)c2cccc(CCCCCC(C)(C)O)c2)C[C@@H](O)C[C@@H]1O [PG-385]	%	9
C=C1/C(=C\C=C(/CCCC)c2cccc(CCCCCC(C)(C)O)c2)C[C@@H](O)C[C@@H]1O [PG-128]	%	34
C=C1/C(=C\C=C\c2cc(CCCCCC(C)(C)O)cc(CCCCCC(C)(C)O)c2)C[C@@H](O)C[C@@H]1O [PG-433]	%	8
C=C1/C(=C\C=C2/CCC[C@]3(C)[C@@H]([C@H](C)CCCC(C)(C)O)CC[C@@H]23)C[C@@H](O)C[C@@H]1O [1,25D, 1,25-dihydroxyvitamin D3, reference compound]	%	100
C=C1/C(=C\C=C(/CC)c2cccc(CCCCCC(C)(C)O)c2)C[C@@H](O)C[C@@H]1O [PG-136p]	%	0

Q. Using the record for C=C1/C(=C\C=C(/CCC)c2cccc(CCCCCC(C)(C)O)c2)C[C@@H](O)C[C@@H]1O [PG-152] , report its Calcaemic activity: blood calcium in percentage over that induced by 1,25D.
A. 41

Q. Next entry: C=C1/C(=C\C=C(/CCCCCCC)c2cccc(CCCCCC(C)(C)O)c2)C[C@@H](O)C[C@@H]1O [PG-403]
A. 0

Q. Next entry: C=C1/C(=C\C=C(/CCCCCC)c2cccc(CCCCCC(C)(C)O)c2)C[C@@H](O)C[C@@H]1O [PG-156]
A. 0
